System: Wild type
assayRemarks: S. aureus survival, RN4220 and DeltatarO strains – OD600, teichoic acid synthesis inhibitors, primary screen (AID 463173)
assayConditions: S. aureus RN4220 wild type/DeltatarO growth, OD600, 18 h, stronger effect = lower value, screened at 18.75 µg/mL (by protocol)
Hit rate of the full screen: of about 52,000 compounds, about 1,700 (3.3%) were called active. The full list was thinned out, with actives kept by preference.
Known survival of a selection of molecules
Output spec: scalar in %, unitless text.

Consider the following illustrative entries.
Task item: Report survival, nothing else, for this molecule: `O=C(NCCc1ccc(Cl)cc1)c1ccc2nc(CCc3ccccc3)oc2c1`
Reply: 59

Task item: Report survival, nothing else, for this molecule: `COc1ccc(-c2cc(C(F)(F)F)nc(SCC(=O)N(C)Cc3ccccc3)n2)cc1`
Reply: -1

Task item: Report survival, nothing else, for this molecule: `CC(C)(C)C(=O)Nc1cccc(-c2cn3cccnc3n2)c1`
Reply: 70

Task item: Report survival, nothing else, for this molecule: `CCOc1ccc2ncc3c(-c4cccc(OC)c4)nn(-c4ccccc4)c3c2c1`
Reply: 125

Task item: Report survival, nothing else, for this molecule: `COc1ccc(CCNC(=O)c2ccc3nc(Cc4ccccc4)oc3c2)cc1OC`
Reply: 124

Task item: Report survival, nothing else, for this molecule: `CN(C)CCNC(=O)c1ccc(-n2c(-c3ccccc3)cc3c2CCCC3)cc1`
Reply: 29

---
Task item: Report survival, nothing else, for this molecule: `COc1ccc(NC(=O)NCCc2c(C)nn(C)c2C)c(OC)c1`
Reply: 57

* * *

Test system: Wild type
assayRemarks: S. aureus survival, RN4220 and DeltatarO strains – OD600, teichoic acid synthesis inhibitors, primary screen (AID 463173)
assayConditions: S. aureus RN4220 wild type/DeltatarO growth, OD600, 18 h, screened at 18.75 µg/mL (by protocol)
Screen size: about 52,000 compounds; about 1,700 (3.3%) were called active. Rule as the data show it: active = survival mostly below about 52% (no sharp cut-off); inactive = mostly above about 56%. The sample as a whole holds a higher share of actives than the screen did.
Respond only with the outcome that fits, drawn from true (1) for active, false (0) for inactive

Use these answered entries as a reference point.
Task item: What was the test verdict on `O=C(O)C1CCN(C(=O)c2ccc(-c3ccccc3)cc2)CC1` ?
Reply: false (0)

Task item: What was the test verdict on `Cc1ccc(S(=O)(=O)N(CC(=O)N2CCC(C(N)=O)CC2)c2ccccc2F)cc1` ?
Reply: false (0)

Task item: What was the test verdict on `COc1ccc(N2CCN(S(=O)(=O)c3ccc(-c4ccno4)cc3OC)CC2)cc1` ?
Reply: true (1)

Task item: What was the test verdict on `CC(C)CN(CCCNC(=O)c1cc(=O)[nH]c2ccc(S(=O)(=O)N3CCCCCC3)cc12)CC(C)C` ?
Reply: false (0)

Shift focus to the following entry.
Task item: What was the test verdict on `COc1ccccc1C(=O)Nc1ccccc1OCc1cc(=O)n2ccccc2n1` ?
Reply: false (0)

* * *

Tested on: Wild type
assayRemarks: S. aureus survival, RN4220 and DeltatarO strains – OD600, teichoic acid synthesis inhibitors, primary screen (AID 463173)
assayConditions: S. aureus RN4220 wild type/DeltatarO growth, OD600, 18 h, screened at 18.75 µg/mL (by protocol)
In all, about 52,000 compounds went through this assay and about 1,700 (3.3%) were called active. No stated cut-off is given here; in the data, active means survival mostly below about 52% (no sharp cut-off); inactive means mostly above about 56%. This is one part of a sample in which actives are shown more often than they occur.
Respond only with the outcome that fits, drawn from YES for active, NO for inactive

Use these answered entries as a reference point.
Task item: What was the test verdict on `O=C(NC1CCCCC1)c1ccc(Cn2c(SCc3ccc(F)cc3)nc3cccnc32)cc1` ?
Reply: YES

Task item: What was the test verdict on `COc1ccc(NC(=O)CCc2c(C)nc3c(-c4ccc(F)cc4)c(C)nn3c2C)c(OC)c1` ?
Reply: NO

---
Task item: What was the test verdict on `CCOc1ccc(NC(=O)N(Cc2c[nH]c3ccccc23)C2CCCCCC2)cc1` ?
Reply: NO

Task item: What was the test verdict on `COc1cccc(-c2nc(SCc3cc(=O)c4ccc(C)c(C)c4[nH]3)n[nH]2)c1` ?
Reply: NO

Task item: What was the test verdict on `COC(=O)c1sccc1S(=O)(=O)N(CC(=O)Nc1cc(F)ccc1F)c1ccc(C)c(C)c1` ?
Reply: NO

Task item: What was the test verdict on `COc1ccc(C2=C(C)C(N3CCC(C(=O)NCc4ccco4)CC3)=NS2(=O)=O)cc1` ?
Reply: NO

Task item: What was the test verdict on `COC(=O)c1sccc1S(=O)(=O)N(CC(=O)NCc1ccccc1)c1ccc(C)c(C)c1` ?
Reply: YES

Task item: What was the test verdict on `CCN(CC)CCCNC(=O)c1nn(-c2ccc(OC)c(Cl)c2)c(=O)c2c1c1ccccc1n2C` ?
Reply: NO

Task item: What was the test verdict on `COCCNC(=O)CSc1nc(-c2ccc(C)cc2)nc2c1c(=O)n(C)c(=O)n2C` ?
Reply: NO

Task item: What was the test verdict on `CCc1ccc(C2=C(C)C(N3CCC(C(=O)NCc4ccc(C)o4)CC3)=NS2(=O)=O)cc1` ?
Reply: NO

* * *

System: Wild type
assayRemarks: S. aureus survival, RN4220 and DeltatarO strains – OD600, teichoic acid synthesis inhibitors, primary screen (AID 463173)
assayConditions: S. aureus RN4220 wild type/DeltatarO growth, OD600, 18 h, screened at 18.75 µg/mL (by protocol)
The campaign covered roughly 52,000 compounds. About 1,700 (3.3%) were called active. Rule as the data show it: active = survival mostly below about 52% (no sharp cut-off); inactive = mostly above about 56%. Only a selection was taken, and actives are over-represented in it overall.
Respond only with the outcome that fits, drawn from active, inactive

Task item: What was the test verdict on CC(=O)N1c2ccccc2CC1C(=O)N1CCN(c2ccccc2F)CC1 (centres undefined) ?
Reply: inactive

Task item: What was the test verdict on `COCCNC(=O)c1ccc2c(=O)n(CCc3ccccc3)c(SCC(=O)CC(=O)OC)nc2c1` ?
Reply: inactive

Task item: What was the test verdict on `Fc1ccc(-c2cc(C(F)(F)F)nc(NCc3ccccc3)n2)cc1` ?
Reply: inactive

Task item: What was the test verdict on `CCCc1ccc(-c2ccc(C(=O)Oc3ccc(Br)cc3)cc2)nc1` ?
Reply: inactive

Task item: What was the test verdict on `COCCn1c(SCC(=O)c2c(C)[nH]c3ccccc23)nc2cc(C(=O)NC(C)C)ccc2c1=O` ?
Reply: inactive

Task item: What was the test verdict on `COCCNC(=O)CN1C(=O)CCn2nc(-c3cn(C)c4ccccc34)cc21` ?
Reply: inactive

Task item: What was the test verdict on `CCc1ccc(CNC(=O)CCSCc2ccccc2F)cc1` ?
Reply: inactive

Task item: What was the test verdict on `COCCn1c(SCC(=O)c2c[nH]c3ccccc23)nc2cc(C(=O)NC(C)C)ccc2c1=O` ?
Reply: active

Task item: What was the test verdict on `Cc1ccc(CCNC(=O)c2ccc(CS(=O)(=O)Cc3ccccc3F)o2)cc1` ?
Reply: inactive

Task item: What was the test verdict on `CCCCCc1ccc(-c2ccc(C(=O)Oc3ccc(C(=O)OC)cc3)cc2)nc1` ?
Reply: inactive

Task item: What was the test verdict on `O=C(NCc1ccc(F)cc1Cl)c1ccc(CSCc2ccccc2Cl)o1` ?
Reply: inactive

Task item: What was the test verdict on `O=C(CCSCc1ccc(Cl)cc1)NCCc1ccccc1` ?
Reply: active

Task item: What was the test verdict on `Fc1ccc(CNc2nc(-c3ccc(Cl)cc3)cc(C(F)(F)F)n2)cc1` ?
Reply: active

Task item: What was the test verdict on `CCOc1ccc(CCNC(=O)c2cnc3c(-c4ccc(F)cc4)c(C)nn3c2C)cc1` ?
Reply: inactive

* * *

System: Wild type
assayRemarks: S. aureus survival, RN4220 and DeltatarO strains – OD600, teichoic acid synthesis inhibitors, primary screen (AID 463173)
assayConditions: S. aureus RN4220 wild type/DeltatarO growth, OD600, 18 h, stronger effect = lower value, screened at 18.75 µg/mL (by protocol)
Hit rate of the full screen: of about 52,000 compounds, about 1,700 (3.3%) were called active. The list comes from a sample in which actives are over-represented; it also holds close analogues and randomly drawn compounds.
measuredAttribute: survival (%)
Output spec: scalar in %, unitless text.

Consider the following illustrative entries.
Task item: Report survival, nothing else, for this molecule: `Cc1nc2nc(C)c(NS(=O)(=O)c3ccc(F)cc3)c(=O)n2[nH]1`
Reply: 81

Task item: Report survival, nothing else, for this molecule: O=C(c1ccc2c(c1)N(Cc1ccccc1F)C(=O)c1ccccc1S2=O)N1CCCCC1 (centres undefined)
Reply: 89

Task item: Report survival, nothing else, for this molecule: `CC(C)CSc1oc(-c2ccco2)nc1S(=O)(=O)c1ccc(Br)cc1`
Reply: 27

Shifting focus to the molecule that follows.
Task item: Report survival, nothing else, for this molecule: `Fc1ccc(-c2cn3cc(Cc4ccccc4Cl)sc3n2)cc1`
Reply: 53

* * *

Test system: Wild type
assayRemarks: S. aureus survival, RN4220 and DeltatarO strains – OD600, teichoic acid synthesis inhibitors, primary screen (AID 463173)
assayConditions: S. aureus RN4220 wild type/DeltatarO growth, OD600, 18 h, screened at 18.75 µg/mL (by protocol)
Hit rate of the full screen: of about 52,000 compounds, about 1,700 (3.3%) were called active. Rule as the data show it: active = survival mostly below about 52% (no sharp cut-off); inactive = mostly above about 56%. Many of the other results were omitted from the sample, so actives are more common in it than they were.
Respond only with the outcome that fits, drawn from active, inactive

Use these answered entries as a reference point.
Task item: What was the test verdict on `COc1ccc(-c2csc3ncnc(Nc4cccc(OC)c4)c23)cc1` ?
Reply: inactive

Task item: What was the test verdict on `CC1(C)N=C(SCc2ccc(Cl)cc2)c2ccccc2N1` ?
Reply: inactive

Task item: What was the test verdict on `Cc1nn(C)c(C)c1NC(=O)CSc1nccc(-c2ccc(Cl)cc2)n1` ?
Reply: inactive

Task item: What was the test verdict on `O=c1c2cc3c(cc2nc2sc(Nc4ccc(F)c(Cl)c4)nn12)OCO3` ?
Reply: inactive

---
Task item: What was the test verdict on `Cc1cccc(CNC(=O)Cn2c(-c3cccs3)cc3ccccc32)c1` ?
Reply: inactive

Task item: What was the test verdict on `COc1nnc(-c2ccc(N3CCCCC3)c(NC(=O)c3ccccc3Cl)c2)c2ccccc12` ?
Reply: active

Task item: What was the test verdict on `COc1ccc(Nc2ncnc3scc(-c4ccc(F)cc4)c23)cc1` ?
Reply: inactive

Task item: What was the test verdict on `COc1ccc(Nc2nnc(-c3ccc(C)c(S(=O)(=O)NCCO)c3)c3ccccc23)cc1C(N)=O` ?
Reply: inactive

Task item: What was the test verdict on `O=C(Cn1c(=O)c2ccccc2n(CC(=O)Nc2ccc(F)cc2)c1=O)NCCc1ccccc1` ?
Reply: inactive

Task item: What was the test verdict on `Cn1nc(-c2ccc(N3CCCCC3)c(NC(=O)c3ccc(Cl)cc3)c2)c2ccccc2c1=O` ?
Reply: inactive

Task item: What was the test verdict on `COc1nnc(-c2ccc(N3CCCCC3)c(NC(=O)c3ccccc3)c2)c2ccccc12` ?
Reply: active
